target_of_assay: Human 11β-HSD1 (Homo sapiens, UniProt P28845)
Sequence (P28845 whole entry): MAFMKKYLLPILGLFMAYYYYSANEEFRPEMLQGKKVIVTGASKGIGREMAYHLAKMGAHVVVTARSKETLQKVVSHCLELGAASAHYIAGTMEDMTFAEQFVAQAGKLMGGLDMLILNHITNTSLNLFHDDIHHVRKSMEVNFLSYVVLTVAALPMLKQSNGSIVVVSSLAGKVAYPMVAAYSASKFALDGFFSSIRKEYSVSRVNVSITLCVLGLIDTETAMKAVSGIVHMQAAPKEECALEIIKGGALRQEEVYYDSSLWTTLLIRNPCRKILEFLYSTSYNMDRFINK
test_summary: 11β-HSD1 HTRF assay (human liver microsome fractions, cortisol by HTRF)
Type: biochemical
condition_context: 10 μM compound; human liver microsomes
measured_property: inhibition at 10 µM

O=C(NCc1cccs1)C12CC3CC(CC(C3)C1)C2: > 60%
CN(Cc1cccs1)C(=O)C12CC3CC(CC(C3)C1)C2: > 60%
Cn1cccc1CNC(=O)C12CC3CC(CC(C3)C1)C2: > 60%
O=C(COc1cc(Cl)ccc1Cl)C12CC3CC(CC(C3)C1)C2: > 60%
O=C(NCc1ccccn1)C12CC3CC(CC(C3)C1)C2: > 60%

Per the reported Human 11β-HSD1 (Homo sapiens, UniProt P28845) data, O=C(CSc1cc(Cl)ccc1Cl)C12CC3CC(CC(C3)C1)C2 has inhibition at 10 µM of > 60%

Per the reported Human 11β-HSD1 (Homo sapiens, UniProt P28845) data, O=C(NCCc1cccs1)C12CC3CC(CC(C3)C1)C2 has inhibition at 10 µM of > 60%

Per the reported Human 11β-HSD1 (Homo sapiens, UniProt P28845) data, O=C(NCc1ccco1)C12CC3CC(CC(C3)C1)C2 has inhibition at 10 µM of > 60%

Per the reported Human 11β-HSD1 (Homo sapiens, UniProt P28845) data, O=S(=O)(NCC12CC3CC(CC(C3)C1)C2)c1cccs1 has inhibition at 10 µM of > 60%

Per the reported Human 11β-HSD1 (Homo sapiens, UniProt P28845) data, Cc1ccc(-c2noc(C34CC5CC(CC(C5)C3)C4)n2)cc1 has inhibition at 10 µM of 20 to 60%

Per the reported Human 11β-HSD1 (Homo sapiens, UniProt P28845) data, CC(=O)Nc1ccc(OCC(=O)C23CC4CC(CC(C4)C2)C3)cc1 has inhibition at 10 µM of > 60%

Per the reported Human 11β-HSD1 (Homo sapiens, UniProt P28845) data, O=C(NCCc1ccccn1)C12CC3CC(CC(C3)C1)C2 has inhibition at 10 µM of > 60%

Per the reported Human 11β-HSD1 (Homo sapiens, UniProt P28845) data, O=C(CC12CC3CC(CC(C3)C1)C2)NCc1cccs1 has inhibition at 10 µM of > 60%

Per the reported Human 11β-HSD1 (Homo sapiens, UniProt P28845) data, Cc1nc2c(NC(=O)C34CC5CC(CC(C5)C3)C4)c(C)ccc2s1 has inhibition at 10 µM of 20 to 60%

Per the reported Human 11β-HSD1 (Homo sapiens, UniProt P28845) data, O=S(=O)(Cc1ccc(Cl)cc1)NC12CC3CC(CC(C3)C1)C2 has inhibition at 10 µM of 20 to 60%

Per the reported Human 11β-HSD1 (Homo sapiens, UniProt P28845) data, COc1ccc(OCC(=O)C23CC4CC(CC(C4)C2)C3)cc1OC has inhibition at 10 µM of > 60%

Per the reported Human 11β-HSD1 (Homo sapiens, UniProt P28845) data, O=C(C[S+]([O-])c1cc(Cl)ccc1Cl)C12CC3CC(CC(C3)C1)C2 (stereo not shown) has inhibition at 10 µM of > 60%

Per the reported Human 11β-HSD1 (Homo sapiens, UniProt P28845) data, Cn1cnc(CNC(=O)C23CC4CC(CC(C4)C2)C3)c1 has inhibition at 10 µM of > 60%

Per the reported Human 11β-HSD1 (Homo sapiens, UniProt P28845) data, O=S(=O)(NC12CC3CC(CC(C3)C1)C2)c1cccs1 has inhibition at 10 µM of > 60%
